pKd: −log10 of the molar value.
pKd for Fatty acid-binding protein, adipocyte (Homo sapiens, UniProt P15090) - collated from the literature.
measured_parameter: pKd

Reported pKd, compound O=C(O)C1C2CC=CC2c2cc(Br)cc3c2N1CC1CC=CC31 (centres undefined) : ____
5.58

I. COc1c(-c2ccc(F)cc2C)cc(S(=O)(=O)Nc2ccc(F)c(CC(=O)O)c2)c2ccccc12
II. [3H]c1c(Cl)ccc(COc2cccc(C(=O)O)c2OCc2ccc(Cl)c([3H])c2Cl)c1Cl
III. O=C(O)c1cc(NS(=O)(=O)c2ccc(-c3ccc(F)cc3Cl)c3ccccc23)ccc1F
Sort the compounds on pKd; start with the lowest figure. API: response body holds the labels in the requested order.
III, I, II
